# System: Pneumocystis carinii
# Method Notes: Treatment of Pneumocystis carinii pneumonia in rats: histologic scoring of lung cysts (GMS stain)
# Type: in vivo, Sprague-Dawley rats
# Condition Set: 10.0 mg/kg, daily i.v., 14 days; 4 = >50% of lung tissue involved
Measure: No. of animals with histologic score 4 (animals)
Form entry: value (animals) — number only.

Worked set:
>>> df
                                   molecule  numeric_readout
0  N=C(N)c1ccc2nc(CCCc3nc4ccc(C(=N)N)cc4[nH]3)[nH]c2c1 [Compound 5]                3
1  N=C(N)c1ccc2nc(CCc3nc4ccc(C(=N)N)cc4[nH]3)[nH]c2c1 [Compound 3]                0
2  N=C(N)c1ccc(OCCCCCOc2ccc(C(=N)N)cc2)cc1 [Pentamidine, reference compound]                0
3  c1cc2[nH]c(CCCCc3nc4cc(C5=NCCN5)ccc4[nH]3)nc2cc1C1=NCCN1 [Compound 8]                0
4  c1cc2[nH]c(CCCc3nc4cc(C5=NCCN5)ccc4[nH]3)nc2cc1C1=NCCN1 [Compound 6]                0

Let us examine a further case.
What reported No. of animals with histologic score 4 corresponds to N=C(N)c1ccc2nc(Cc3nc4ccc(C(=N)N)cc4[nH]3)[nH]c2c1 [Compound 1, bis[5-amidino-2-benzimidazolyl]methane] on Pneumocystis carinii? 0
